- protocol: Partition coefficient (K upper/lower) in biphasic CCC solvent systems
- Type: physicochemical
- condition_parameters: EtOAc/H2O, 1:1; 30 mM ammonia
Let's look at some compounds and their measured K(upper/lower) Value.
No unit in the answer, please; the number alone is enough.

Briefly, K(upper/lower) Value measured for O=C(/C=C/c1ccc(O)c(O)c1)O[C@@H]1[C@H](O)C[C@@](O)(C(=O)O)C[C@H]1OC(=O)/C=C/c1ccc(O)c(O)c1 : 0.01

Memo: O=C(/C=C/c1ccc(O)c(O)c1)O[C@H]1[C@H](O)C[C@](O)(C(=O)O)C[C@H]1OC(=O)/C=C/c1ccc(O)c(O)c1 , reported K(upper/lower) Value: 0.02

The reported value for O=C(/C=C/c1ccc(O)c(O)c1)O[C@@H]1C[C@](O)(C(=O)O)C[C@@H](OC(=O)/C=C/c2ccc(O)c(O)c2)[C@H]1OC(=O)/C=C/c1ccc(O)c(O)c1 in terms of K(upper/lower) Value is 0.02

The measured K(upper/lower) Value associated with O=C(/C=C/c1ccc(O)c(O)c1)O[C@@H]1C[C@](O)(C(=O)O)C[C@@H](O)[C@H]1O reads 0.01

K(upper/lower) Value measured on O=C(/C=C/c1ccc(O)c(O)c1)O[C@@H]1C[C@@](O)(C(=O)O)C[C@@H](O)[C@@H]1O = 0.02

Consider the record given below.
Item: O=C(/C=C/c1ccc(O)c(O)c1)O[C@@H]1C[C@](O)(C(=O)O)C[C@@H](OC(=O)/C=C/c2ccc(O)c(O)c2)[C@H]1O | K(upper/lower) Value: 0.01
